target: G/T mismatch-specific thymine DNA glycosylase (Homo sapiens) (UniProt Q13569); conditions: Compound Concentration 10.0 uM, Hit No
Sequence (Q13569 whole entry): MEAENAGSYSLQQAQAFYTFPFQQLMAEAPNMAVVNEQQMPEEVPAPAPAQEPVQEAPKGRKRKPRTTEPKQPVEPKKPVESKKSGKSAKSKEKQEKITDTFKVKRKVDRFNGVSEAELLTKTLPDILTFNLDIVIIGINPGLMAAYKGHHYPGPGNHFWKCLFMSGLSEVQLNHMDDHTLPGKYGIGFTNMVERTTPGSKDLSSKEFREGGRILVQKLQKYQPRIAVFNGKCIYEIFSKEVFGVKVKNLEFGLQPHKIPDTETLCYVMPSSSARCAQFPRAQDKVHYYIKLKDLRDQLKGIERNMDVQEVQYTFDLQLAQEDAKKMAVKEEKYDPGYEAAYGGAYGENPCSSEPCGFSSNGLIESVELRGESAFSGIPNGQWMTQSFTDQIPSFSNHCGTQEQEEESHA
Description: Inhibition of TDG by quantifying inhibition of TDG-mediated cleavage and dissociation of quenched duplex DNA oligonucleotides, measured as fluorescence at 594 nm. To generate a functional strand incision and increase turn-over this assay is coupled to APE1.
Where a SMILES comes first, the peptide text is derived from it. [ ]: non-standard residue; d: D form. The star is where a group is joined. dPhe(4-NHCONH2) = NC(=O)Nc1ccc(C[C@@H](N)C(=O)O)cc1; Dihydroorotyl(S) = O=C1C[C@@H](C(=O)*)NC(=O)N1; dPhe(4-Cl) = N[C@H](Cc1ccc(Cl)cc1)C(=O)O; Phe(4-NH2) = Nc1ccc(C[C@H](N)C(=O)O)cc1; d2Nal = N[C@H](Cc1ccc2ccccc2c1)C(=O)O; Lys(iPr) = CC(C)NCCCC[C@H](N)C(=O)O; d3Pal = N[C@H](Cc1cccnc1)C(=O)O
REPORTED METRIC: inhibition (%)
Your answer should be a plain number; it is taken to be in %.

INPUT: Test system G/T mismatch-specific thymine DNA glycosylase (Homo sapiens) (UniProt Q13569); read-out inhibition; what value for CNC(=O)COc1cc2cc(Nc3nc(N4CCC(C(=O)N(C)C)CC4)ncc3Cl)cc(OC)c2n(C)c1=O ?
OUTPUT: 86.8

INPUT: Given the entry C=C1/C(=C\C=C2/CCC[C@]3(C)[C@@H]([C@H](C)/C=C/C=C/C(O)(CC)CC)CC[C@@H]23)C[C@@H](O)C[C@@H]1O , what inhibition was observed with G/T mismatch-specific thymine DNA glycosylase (Homo sapiens) (UniProt Q13569)?
OUTPUT: 28.5

INPUT: // map C[C@@H](NC(=O)Cc1ccc(C2CC2)cc1)c1ccc(OCC(F)(F)F)cn1 to recorded inhibition (system: G/T mismatch-specific thymine DNA glycosylase (Homo sapiens) (UniProt Q13569))
OUTPUT: 4.49

INPUT: Query inhibition on G/T mismatch-specific thymine DNA glycosylase (Homo sapiens) (UniProt Q13569) for CSc1ccccc1N1CCN(CCCCCC(=O)NC2CCCc3ccccc32)CC1 (stereo unspecified)
OUTPUT: 1.58

INPUT: Give recorded inhibition with G/T mismatch-specific thymine DNA glycosylase (Homo sapiens) (UniProt Q13569) for the following compound: COc1cccc(OC)c1-c1cc(C(=O)NC2(C(=O)O)C3CC4CC(C3)CC2C4)nn1-c1ccc(C(=O)N(C)CCCN(C)C)cc1C(C)C (stereo unspecified)
OUTPUT: 18.3

INPUT: Query for G/T mismatch-specific thymine DNA glycosylase (Homo sapiens) (UniProt Q13569): what inhibition does the record show for COCCCN1CCC(NC(=O)c2cc(Cl)c(N)c3c2OCC3)CC1 ?
OUTPUT: 2.17

INPUT: API: value(readout= inhibition, system= G/T mismatch-specific thymine DNA glycosylase (Homo sapiens) (UniProt Q13569), query= COc1ccc2cc(S(=O)(=O)N[C@H](CC(=O)N[C@H](Cc3ccc(CN4[C@H](C)CCC[C@@H]4C)cc3)C(=O)N(C)C(C)C)c3ccc4c(c3)OCO4)ccc2c1 )
OUTPUT: 44.9

INPUT: Give G/T mismatch-specific thymine DNA glycosylase (Homo sapiens) (UniProt Q13569) inhibition for O=C(N[C@@H]1C2CCN(CC2)[C@H]1Cc1cccnc1)c1cc2ccccc2o1
OUTPUT: -0.849

INPUT: Find the measured inhibition: item Cn1c(SCc2ccc(C(C)(C)C)cc2)nc(N)cc1=O , target or system G/T mismatch-specific thymine DNA glycosylase (Homo sapiens) (UniProt Q13569).
OUTPUT: 8.05

INPUT: Field: inhibition (G/T mismatch-specific thymine DNA glycosylase (Homo sapiens) (UniProt Q13569)). Entry: CC(=O)N[C@H](Cc1ccc2ccccc2c1)C(=O)N[C@H](Cc1ccc(Cl)cc1)C(=O)N[C@H](Cc1cccnc1)C(=O)N[C@@H](CO)C(=O)N[C@@H](Cc1ccc(NC(=O)[C@@H]2CC(=O)NC(=O)N2)cc1)C(=O)N[C@H](Cc1ccc(NC(N)=O)cc1)C(=O)N[C@@H](CC(C)C)C(=O)N[C@@H](CCCCNC(C)C)C(=O)N1CCC[C@H]1C(=O)N[C@H](C)C(N)=O (Ac-[d2Nal][dPhe(4-Cl)][d3Pal]S[Phe(4-NH2)](Dihydroorotyl(S))[dPhe(4-NHCONH2)]L[Lys(iPr)]P[dA]-NH2)
OUTPUT: 56.9

INPUT: Could you share what inhibition was measured for C[C@@H](N)Cc1c[nH]cn1 , tested on G/T mismatch-specific thymine DNA glycosylase (Homo sapiens) (UniProt Q13569)?;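 note: human TDG cleavage of quenched duplex DNA oligonucleotides coupled to APE1, strand release read as fluorescence at 594 nm, inhibition of TDG activity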
OUTPUT: 19

Attribution: ChEMBL document CHEMBL5665443
